Target: human PPARγ (Homo sapiens, UniProt P37231)
Construct: expressed in transfected cells
Sequence (P37231 1-477 isoform P37231-2): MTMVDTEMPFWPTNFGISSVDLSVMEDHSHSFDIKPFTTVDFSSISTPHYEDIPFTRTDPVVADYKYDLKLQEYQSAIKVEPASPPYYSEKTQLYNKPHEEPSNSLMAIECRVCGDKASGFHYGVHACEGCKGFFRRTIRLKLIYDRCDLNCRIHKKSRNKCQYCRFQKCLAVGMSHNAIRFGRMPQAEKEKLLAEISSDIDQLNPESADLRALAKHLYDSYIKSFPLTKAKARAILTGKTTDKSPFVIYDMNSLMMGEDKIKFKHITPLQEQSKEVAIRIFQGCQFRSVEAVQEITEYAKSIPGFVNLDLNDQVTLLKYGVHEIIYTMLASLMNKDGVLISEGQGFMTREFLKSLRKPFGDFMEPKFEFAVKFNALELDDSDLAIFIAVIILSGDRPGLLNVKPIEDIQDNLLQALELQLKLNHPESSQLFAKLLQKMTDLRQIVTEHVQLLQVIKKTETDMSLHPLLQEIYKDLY
Sequence (P19793 1-462 partner): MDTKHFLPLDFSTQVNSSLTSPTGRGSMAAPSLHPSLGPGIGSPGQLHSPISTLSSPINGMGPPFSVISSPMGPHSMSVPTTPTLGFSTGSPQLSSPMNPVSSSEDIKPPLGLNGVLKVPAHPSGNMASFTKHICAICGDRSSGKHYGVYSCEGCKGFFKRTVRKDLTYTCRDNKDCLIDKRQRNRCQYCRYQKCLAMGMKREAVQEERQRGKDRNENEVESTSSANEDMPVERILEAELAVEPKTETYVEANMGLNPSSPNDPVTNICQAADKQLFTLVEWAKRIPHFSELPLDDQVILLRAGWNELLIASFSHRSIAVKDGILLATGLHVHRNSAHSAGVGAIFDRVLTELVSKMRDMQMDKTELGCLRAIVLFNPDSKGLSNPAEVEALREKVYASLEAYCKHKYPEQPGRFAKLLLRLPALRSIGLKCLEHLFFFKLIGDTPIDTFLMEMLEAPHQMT
Assay: PPARγ agonistic activity: luciferase reporter assay in PPARγ:RXRα:4ERPP/CHO-K1 cells
Assay type: cell-based
Settings: CHO-K1, test compound 10^−6 M; luciferase activity of control compound X (1 μM) = 100%, non-administration group = 0%
Below, each entry is listed with its recorded activation at 1 µM.

# COMPOUND, UNIT ABBREVIATION, activation at 1 µM
rows = [
    ("CCCc1c(Cc2ccc(-c3ccccc3-c3noc(=O)[nH]3)cc2)c(=O)n(CC(C)(C)C)c2ncnn12", "%", 17),
    ("CCCc1c(Cc2ccc(-c3ccccc3-c3noc(=O)[nH]3)cc2)c(=O)n(C2CCN(Cc3ccccc3)CC2)c2ncnn12", "%", 16),
    ("CCCc1c(Cc2ccc(-c3ccccc3-c3noc(=O)[nH]3)cc2)c(=O)n(C2CCC3(CC2)OC(=O)C(C)(C)O3)c2ncnn12 (stereo not shown)", "%", 25),
    ("CCCc1c(Cc2ccc(-c3ccccc3-c3noc(=O)[nH]3)cc2)c(=O)n(C2CCC(OCCOC)CC2)c2ncnn12 (stereo not shown)", "%", 33),
]

###

Biological target: human PPARγ (Homo sapiens)
Construct: expressed in transfected cells
Experiment: PPARγ agonistic activity: luciferase reporter assay in PPARγ:RXRα:4ERPP/CHO-K1 cells
Format: cell-based
Conditions: CHO-K1, test compound 10^−6 M; luciferase activity of control compound X (1 μM) = 100%, non-administration group = 0%
Label fulfilled when activation at 1 µM is strictly below 20%; at or above that, label not fulfilled.

# COMPOUND, ASSIGNED LABEL
rows = [
    ("CCCc1c(Cc2ccc(-c3ccccc3-c3noc(=O)[nH]3)cc2)c(=O)n([C@H]2CC[C@](O)(COC)CC2)c2ncnn12", "not fulfilled"),
    ("CCCc1c(Cc2ccc(-c3ccccc3-c3noc(=O)[nH]3)cc2)c(=O)n([C@H]2CC[C@H](OCC(O)(CF)CF)CC2)c2ncnn12", "not fulfilled"),
    ("CCCCc1c(Cc2ccc(-c3ccccc3-c3noc(=O)[nH]3)cc2)c(=O)n([C@H]2CC[C@H](OCC(C)(C)O)CC2)c2ccnn12", "not fulfilled"),
    ("CCCc1c(Cc2ccc(-c3ccccc3-c3noc(=O)[nH]3)cc2F)c(=O)n([C@H]2C[C@@H](OCC(C)(C)O)C2)c2nc(C)nn12", "not fulfilled"),
    ("CCCCc1c(Cc2ccc(-c3ccccc3-c3noc(=O)[nH]3)cc2)c(=O)n([C@H]2CC[C@H](OCC(C)(C)O)CC2)c2ncnn12", "not fulfilled"),
    ("CCCc1c(Cc2ccc(-c3ccccc3-c3noc(=O)[nH]3)cc2)c(=O)n(C2CCOCC2)c2ccnn12", "fulfilled"),
    ("CCCc1c(Cc2ccc(-c3ccccc3-c3noc(=O)[nH]3)cc2)c(=O)n([C@H]2CC[C@]3(CC2)CC(C)=NO3)c2ncnn12", "not fulfilled"),
    ("CCCc1c(Cc2ccc(-c3ccccc3-c3nnn[nH]3)cc2)c(=O)n([C@H]2CC[C@H](c3cnco3)CC2)c2ncnn12", "not fulfilled"),
    ("C=CC(O)CO[C@H]1CC[C@H](n2c(=O)c(Cc3ccc(-c4ccccc4-c4noc(=O)[nH]4)cc3)c(CCC)n3ncnc32)CC1 (stereo partly shown)", "not fulfilled"),
    ("CCCc1c(Cc2ccc(-c3ccccc3-c3noc(=O)[nH]3)cc2)c(=O)n([C@H]2CC[C@@H](Oc3ccc(O)cc3)CC2)c2ncnn12", "not fulfilled"),
    ("CCCc1c(Cc2ccc(-c3ccccc3-c3noc(=O)[nH]3)cc2)c(=O)n(C2CCC3(CC2)OCC(C)(C)O3)c2ncnn12 (stereo not shown)", "not fulfilled"),
    ("CCCc1c(Cc2ccc(-c3ccccc3-c3noc(=O)[nH]3)cc2)c(=O)n([C@H]2CC[C@](C)(CO)CC2)c2ncnn12", "not fulfilled"),
    ("CCCc1c(Cc2ccc(-c3ccccc3-c3noc(=O)[nH]3)cc2)c(=O)n([C@H]2CC[C@H](OCC(C)(C)O)CC2)c2ncnn12", "not fulfilled"),
    ("CCCc1c(Cc2ccc(-c3ccccc3-c3noc(=O)[nH]3)cc2)c(=O)n(C2CCC(OC)CC2)c2ncnn12 (stereo not shown)", "not fulfilled"),
    ("CCCCc1c(Cc2ccc(-c3ccccc3-c3noc(=O)[nH]3)cc2)c(=O)n([C@H]2C[C@@H](C)O[C@@H](C)C2)c2ncnn12", "fulfilled"),
    ("CCCCc1c(Cc2ccc(-c3ccccc3-c3noc(=O)[nH]3)cc2)c(=O)n(C2CCOCC2)c2ncnn12", "not fulfilled"),
    ("CCCc1c(Cc2ccc(-c3ccccc3-c3noc(=O)[nH]3)cc2F)c(=O)n([C@H]2CC[C@H](OC(C)C#N)CC2)c2nc(C)nn12 (stereo partly shown)", "not fulfilled"),
    ("CCCCc1c(Cc2ccc(-c3ccccc3-c3noc(=O)[nH]3)cc2)c(=O)n(C2CCOC(C)(C)C2)c2ncnn12 (stereo not shown)", "not fulfilled"),
    ("CCCc1c(Cc2ccc(-c3ccccc3-c3nnn[nH]3)cc2)c(=O)n(C2CCC3(CC2)OC(C)(C)C(C)(C)O3)c2ncnn12", "fulfilled"),
    ("CCCc1c(Cc2ccc(-c3ccccc3-c3noc(=O)[nH]3)cc2)c(=O)n([C@H]2CC[C@H](OC(C)C#N)CC2)c2ncnn12 (stereo partly shown)", "not fulfilled"),
    ("CCCc1c(Cc2ccc(-c3ccccc3-c3noc(=O)[nH]3)cc2)c(=O)n([C@H]2CC[C@@H](Oc3ccc(OC)cc3)CC2)c2ncnn12", "not fulfilled"),
    ("CCCc1c(Cc2ccc(-c3ccccc3-c3noc(=O)[nH]3)cc2)c(=O)n(C2CCC3(CC2)OCCO3)c2nc(C)nn12", "not fulfilled"),
    ("CCCc1c(Cc2ccc(-c3ccccc3-c3noc(=O)[nH]3)cc2)c(=O)n(Cc2ccc(F)cc2)c2nc(C)nn12", "fulfilled"),
]

###

Target: human PPARγ (Homo sapiens, UniProt P37231)
Construct: expressed in transfected cells
Sequence (P37231 1-477 isoform P37231-2): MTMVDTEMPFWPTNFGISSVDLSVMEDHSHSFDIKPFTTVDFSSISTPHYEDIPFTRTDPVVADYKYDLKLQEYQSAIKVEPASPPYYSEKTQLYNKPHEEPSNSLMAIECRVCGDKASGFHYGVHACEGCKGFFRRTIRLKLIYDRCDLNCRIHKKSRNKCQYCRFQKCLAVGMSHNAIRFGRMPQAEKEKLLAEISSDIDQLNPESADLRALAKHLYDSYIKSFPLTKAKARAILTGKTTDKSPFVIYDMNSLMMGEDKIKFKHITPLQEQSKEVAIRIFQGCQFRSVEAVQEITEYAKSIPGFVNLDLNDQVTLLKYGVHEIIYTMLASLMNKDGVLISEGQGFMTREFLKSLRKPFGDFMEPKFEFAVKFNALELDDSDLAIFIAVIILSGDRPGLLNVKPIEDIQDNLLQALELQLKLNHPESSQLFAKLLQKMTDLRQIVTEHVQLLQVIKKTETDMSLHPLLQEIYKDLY
Sequence (P19793 1-462 partner): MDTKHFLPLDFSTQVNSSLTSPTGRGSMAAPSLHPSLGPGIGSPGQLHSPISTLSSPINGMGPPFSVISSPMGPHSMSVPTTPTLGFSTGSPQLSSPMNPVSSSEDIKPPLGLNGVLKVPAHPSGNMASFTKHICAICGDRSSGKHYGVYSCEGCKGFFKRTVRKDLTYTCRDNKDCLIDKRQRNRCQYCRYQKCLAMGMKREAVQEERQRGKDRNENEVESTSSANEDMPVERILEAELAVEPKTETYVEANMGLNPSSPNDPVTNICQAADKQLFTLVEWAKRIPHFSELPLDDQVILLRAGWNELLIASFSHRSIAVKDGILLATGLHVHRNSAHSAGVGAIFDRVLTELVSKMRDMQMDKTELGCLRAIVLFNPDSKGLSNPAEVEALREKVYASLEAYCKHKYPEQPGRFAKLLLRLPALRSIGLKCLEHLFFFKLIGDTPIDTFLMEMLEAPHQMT
Assay: PPARγ agonistic activity: luciferase reporter assay in PPARγ:RXRα:4ERPP/CHO-K1 cells
Type: cell-based
Conditions: CHO-K1, test compound 10^−6 M; luciferase activity of control compound X (1 μM) = 100%, non-administration group = 0%
// classify: if (activation at 1 µM < 20%) Yes else No

# COMPOUND, ASSIGNED LABEL
rows = [
    ("CCCCc1c(Cc2ccc(-c3ccccc3-c3nnn[nH]3)cc2F)c(=O)n([C@H]2CC[C@H](OCC(C)(C)O)CC2)c2ncnn12 [Example 457]", "Yes"),
    ("CCCc1c(Cc2ccc(-c3ccccc3-c3noc(=O)[nH]3)cc2)c(=O)n([C@H]2CC[C@H](OCC(O)C(F)(F)F)CC2)c2ncnn12 (stereo partly drawn) [Example 325]", "No"),
    ("CCCc1c(Cc2ccc(-c3ccccc3-c3noc(=O)[nH]3)cc2)c(=O)n(CC(=O)C(C)(C)C)c2ncnn12 [Example 10]", "Yes"),
    ("CCCc1c(Cc2ccc(-c3ccccc3-c3noc(=O)[nH]3)cc2)c(=O)n(C2CCC3(CC2)OC(C)(C)C(C)(C)O3)c2ncnn12 [Example 180]", "No"),
    ("CCCc1c(Cc2ccc(-c3ccccc3-c3noc(=O)[nH]3)cc2F)c(=O)n([C@H]2C[C@H](OCC(C)(C)O)C2)c2ncnn12 [Example 367]", "No"),
]
